# measurement.target: IDH2 R140Q (Homo sapiens (Human), UniProt P48735, R140Q)
# Sequence (P48735 40-452 R140Q): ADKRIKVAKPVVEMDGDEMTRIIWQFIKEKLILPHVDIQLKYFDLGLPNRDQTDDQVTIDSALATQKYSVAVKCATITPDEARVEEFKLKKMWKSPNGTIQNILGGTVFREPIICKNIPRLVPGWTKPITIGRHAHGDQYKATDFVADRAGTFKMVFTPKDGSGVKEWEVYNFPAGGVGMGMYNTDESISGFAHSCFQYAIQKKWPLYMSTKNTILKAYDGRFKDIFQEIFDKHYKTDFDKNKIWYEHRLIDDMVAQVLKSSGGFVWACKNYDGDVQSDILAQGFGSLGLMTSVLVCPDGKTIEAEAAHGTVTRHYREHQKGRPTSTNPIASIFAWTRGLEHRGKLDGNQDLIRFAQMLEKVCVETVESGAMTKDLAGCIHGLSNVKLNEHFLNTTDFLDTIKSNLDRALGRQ
# assay.details: IDH2 R140Q enzymatic cofactor depletion assay (diaphorase/resazurin)
# condition.details: IDH2 R140Q enzyme, one hour preincubation with compound, one hour reaction; read-out: Enz R140Q

# compound.structure, IC50
measured = [
    ("COCCCNS(=O)(=O)c1ccc(-c2ccsc2)c(NC(=O)Nc2cccc(C(F)(F)F)c2)c1", "0.1 to 1 µM"),
    ("Cc1cncc(NC(=O)Nc2cc(S(=O)(=O)NC3CC3)ccc2-c2ccsc2)c1", "1 to 10 µM"),
    ("O=C(Nc1cccc(C(F)(F)F)c1)Nc1cc(S(=O)(=O)Nc2ccccc2)ccc1-c1cccc(O)c1", "0.1 to 1 µM"),
    ("O=C(Nc1ccc(Cl)cc1)Nc1cc(S(=O)(=O)NCC(F)(F)F)ccc1-c1ccccc1", "0.1 to 1 µM"),
    ("O=C(Nc1cccc(C(F)(F)F)c1)Nc1cc(S(=O)(=O)Nc2cccnc2)ccc1-c1ccsc1", "1 to 10 µM"),
    ("O=C(Nc1ccccc1O)Nc1cc(S(=O)(=O)Nc2ccccc2)ccc1-c1ccsc1", "1 to 10 µM"),
    ("CCNS(=O)(=O)c1ccc(-c2ccsc2)c(NC(=O)Nc2cccc(C(F)(F)F)c2)c1", "0.1 to 1 µM"),
    ("COc1ccc(-c2ccc(S(=O)(=O)Nc3ccccc3)cc2NC(=O)Nc2cccc(C(F)(F)F)c2)cc1", "1 to 10 µM"),
    ("O=C(Nc1cccc(C(F)(F)F)c1)Nc1cc(S(=O)(=O)Nc2cccc(C(F)(F)F)c2)ccc1-c1ccsc1", "1 to 10 µM"),
    ("O=C(Nc1ccccc1Cl)Nc1cc(S(=O)(=O)NCC(F)(F)F)ccc1-c1ccccc1", "0.1 to 1 µM"),
    ("O=C(Nc1ccc(F)c(C(F)(F)F)c1)Nc1cc(S(=O)(=O)NCC(F)(F)F)ccc1-c1cccnc1", "1 to 10 µM"),
    ("O=C(Nc1ccc(F)c(C(F)(F)F)c1)Nc1cc(S(=O)(=O)NCC(F)(F)F)ccc1-c1ccccc1", "0.1 to 1 µM"),
    ("O=C(Nc1ncc(Cl)s1)Nc1cc(S(=O)(=O)NCC(F)(F)F)ccc1-c1ccccc1", "0.1 to 1 µM"),
    ("O=C(Nc1cccc(C(F)(F)F)c1)Nc1cc(S(=O)(=O)NCC2CCC2)ccc1-c1ccsc1", "0.1 to 1 µM"),
    ("O=C(Nc1ncc(Cl)s1)Nc1cc(S(=O)(=O)NCC(F)(F)F)ccc1OCC1CC1", "0.1 to 1 µM"),
    ("C#Cc1ccc(S(=O)(=O)NCC(F)(F)F)cc1NC(=O)Nc1cccc(C(F)(F)F)c1", "0.1 to 1 µM"),
]

----------
# measurement.target: IDH2 R140Q (Homo sapiens (Human), UniProt P48735, R140Q)
# assay.details: IDH2 R140Q enzymatic cofactor depletion assay (diaphorase/resazurin)
# condition.details: IDH2 R140Q enzyme, one hour preincubation with compound, one hour reaction; read-out: Enz R140Q
measured.metric: IC50

# compound, result
records = [
    ("CONS(=O)(=O)c1ccc(-c2ccsc2)c(NC(=O)Nc2cccc(C(F)(F)F)c2)c1", "0.1 to 1 µM"),
    ("O=C(Nc1cccc(C(F)(F)F)c1)Nc1cc(S(=O)(=O)NCC2CC2)ccc1C1CCCCO1 (stereo not shown)", "0.1 to 1 µM"),
    ("O=C(Nc1ccccc1F)Nc1cc(S(=O)(=O)NC2CC2)ccc1-c1ccccc1", "0.1 to 1 µM"),
    ("CC(=O)Nc1cccc(-c2ccc(S(=O)(=O)Nc3ccccc3)cc2NC(=O)Nc2cccc(C(F)(F)F)c2)c1", "1 to 10 µM"),
    ("O=C(Nc1cccc(C(F)(F)F)c1)Nc1cc(S(=O)(=O)Nc2ccccc2)ccc1C1CCCCO1 (stereo not shown)", "0.1 to 1 µM"),
    ("CCOc1ncc(S(=O)(=O)NC2COC2)cc1NC(=O)Nc1cccc(C(F)(F)F)c1", "0.1 to 1 µM"),
    ("Cc1cccc(C)c1NC(=O)Nc1cc(S(=O)(=O)Nc2ccccc2)ccc1-c1ccsc1", "1 to 10 µM"),
    ("O=C(Nc1ccc(F)c(Cl)c1)Nc1cc(S(=O)(=O)NCC2CC2)ccc1C1=CCOCC1", "0.1 to 1 µM"),
    ("O=C(Nc1cccc(C(F)(F)F)c1)Nc1cc(S(=O)(=O)Nc2ccccc2)ccc1-c1cccc(Cl)c1", "1 to 10 µM"),
    ("O=C(Nc1cccc(C(F)(F)F)c1)Nc1cc(S(=O)(=O)NC2CCSCC2)ccc1-c1ccsc1", "0.1 to 1 µM"),
    ("O=C(Nc1cccc(C(F)(F)F)c1)Nc1cc(S(=O)(=O)Nc2ccccc2)ccc1Oc1ccccc1", "0.1 to 1 µM"),
    ("Cc1cc(C)cc(NC(=O)Nc2cc(S(=O)(=O)Nc3ccccc3)ccc2-c2ccsc2)c1", "1 to 10 µM"),
    ("O=C(Nc1cc(S(=O)(=O)NC2CC2)ccc1-c1ccsc1)Nc1cccc(Cl)c1Cl", "0.1 to 1 µM"),
    ("CCn1ccc(NC(=O)Nc2cc(S(=O)(=O)NCC(F)(F)F)ccc2-c2ccccc2)n1", "0.1 to 1 µM"),
    ("O=C(Nc1cccc(C(F)(F)F)c1)Nc1cc(S(=O)(=O)Nc2ccccc2)ccc1-c1cccc(F)c1", "1 to 10 µM"),
    ("O=C(Nc1cc(C(F)(F)F)ccn1)Nc1cc(S(=O)(=O)NCC(F)(F)F)ccc1OCC1CC1", "0.1 to 1 µM"),
]
